# Tested on: Direct Seeded Rice and weed species
# EXPERIMENT_DESCRIPTION: Postemergence herbicidal activity in direct seeded rice, visual rating after 20-22 days and probit GR20/GR50/GR80/GR90 (Table 14)
# Type: in vivo
# CONDITION_CONTEXT: DIGSA (Digitaria sanguinalis); probit analysis, dose for 80 percent growth reduction
Lab note: anything with GR80 DIGSA below 8 g ai/ha is marked YES; values at 8 g ai/ha or higher are marked NO.

• Nc1cc(-c2ccc3c(c2F)OC(F)(F)O3)nc(C(=O)O)c1Cl = YES
• COC(=O)c1nc(-c2ccc3c(c2F)OC(F)(F)O3)cc(N)c1Cl = YES
• Nc1cc(-c2cc3c(cc2F)OC(F)(F)O3)nc(C(=O)O)c1Cl = YES
• Nc1c(F)c(-c2ccc3c(c2F)OC(F)(F)O3)nc(C(=O)O)c1Cl = YES
• COc1c(N)nc(-c2ccc3c(c2F)OC(F)(F)O3)nc1C(=O)O = NO
• COc1c(C(=O)O)nc(-c2ccc3c(c2)OC(F)(F)O3)c(F)c1N = NO
• Nc1c(F)c(-c2cc3c(cc2F)OC(F)(F)O3)nc(C(=O)O)c1Cl = YES

---

# System: Direct Seeded Rice and weed species
# EXPERIMENT_DESCRIPTION: Postemergence herbicidal activity in direct seeded rice, visual rating after 20-22 days and probit GR20/GR50/GR80/GR90 (Table 14)
# Assay type: in vivo
# CONDITION_CONTEXT: BRAPP (Brachiaria platyphylla); probit analysis, dose for 80 percent growth reduction
ASSAY_METRIC: GR80 BRAPP (g ai/ha)

• Nc1cc(-c2cc3c(cc2F)OC(F)(F)O3)nc(C(=O)O)c1Cl = 0.2
• Nc1c(F)c(-c2cc3c(cc2F)OC(F)(F)O3)nc(C(=O)O)c1Cl = 5
• Nc1cc(-c2ccc3c(c2F)OC(F)(F)O3)nc(C(=O)O)c1Cl = 2
• COC(=O)c1nc(-c2ccc3c(c2F)OC(F)(F)O3)c(F)c(N)c1Cl = 16
• COc1c(N)nc(-c2ccc3c(c2F)OC(F)(F)O3)nc1C(=O)O = 7
• COc1c(C(=O)O)nc(-c2ccc3c(c2)OC(F)(F)O3)c(F)c1N = 9
• Nc1c(F)c(-c2ccc3c(c2F)OC(F)(F)O3)nc(C(=O)O)c1Cl = 16
• COC(=O)c1nc(-c2ccc3c(c2F)OC(F)(F)O3)cc(N)c1Cl = 15

---

# Test system: Key Broadleaf Weed and Crop Species
# EXPERIMENT_DESCRIPTION: Post-Emergent Test II: postemergent herbicidal activity, visual rating after 14 d (Table 7)
# Format: in vivo
# CONDITION_CONTEXT: post-emergence, 336 h, lambsquarters (Chenopodium album), 70 g ai/ha, read-out: Visual Growth Reduction (%) 14 Days After Application CHEAL
ASSAY_METRIC: pest or weed control at 70 g/ha

• COC(=O)c1nc(-c2cc3c(cc2F)OCO3)c(F)c(N)c1Cl [Compound 16] = 60 to 74%
• COC(=O)c1nc(-c2ccc3c(c2F)OC(F)(F)O3)c(F)c(N)c1Cl [Compound 10] = 85 to 94%
• C=Cc1c(C(=O)OC)nc(-c2cc3c(cc2F)OC(F)(F)O3)c(F)c1N [Compound 27] = 0 to 29%

---

# Tested on: Key Broadleaf Weed and Crop Species
# EXPERIMENT_DESCRIPTION: Post-Emergent Test II: postemergent herbicidal activity, visual rating after 14 d (Table 7)
# Assay type: in vivo
# CONDITION_CONTEXT: post-emergence, 336 h, wild poinsettia (Euphorbia heterophylla), 140 g ai/ha, read-out: Visual Growth Reduction (%) 14 Days After Application EPHHL
Let's look at some compounds and their measured pest or weed control at 140 g/ha.
ASSAY_METRIC: pest or weed control at 140 g/ha

• Nc1c(F)c(-c2ccc(I)c3c2OC(F)(F)O3)nc(C(=O)O)c1Cl = 0 to 29%
• C=Cc1c(C(=O)O)nc(-c2cc3c(cc2F)OC(F)(F)O3)c(F)c1N = 95 to 100%
• COC(=O)c1nc(-c2cc3c(cc2Cl)OC(F)(F)O3)cc(N)c1Cl = 0 to 29%
• Nc1cc(-c2ccc3c(c2F)OC(F)(F)O3)nc(C(=O)O)c1Cl = 95 to 100%
• CC1(C)Oc2ccc(-c3nc(C(=O)O)c(Cl)c(N)c3F)cc2O1 = 95 to 100%

---

# System: Key Grass and Sedge Weeds as well as Grass Crops
# EXPERIMENT_DESCRIPTION: Post-Emergent Test II: postemergent herbicidal activity, visual rating after 14 d (Table 8)
# Format: in vivo
# CONDITION_CONTEXT: post-emergence, 336 h, yellow nutsedge (Cyperus esculentus), 70 g ai/ha, read-out: Visual Growth Reduction (%) 14 Days After Application CYPES
Let's look at some molecules and their measured pest or weed control at 70 g/ha.
ASSAY_METRIC: pest or weed control at 70 g/ha

* Nc1cc(-c2ccc3c(c2Cl)OC(F)(F)O3)nc(C(=O)O)c1Cl [Compound 34] | 0 to 29%
* COC(=O)c1nc(-c2cc3c(cc2F)OC(F)(F)O3)c(F)c(N)c1F [Compound 21] | 0 to 29%
* C=Cc1c(C(=O)O)nc(-c2ccc3c(c2)OC(F)(F)O3)c(F)c1N [Compound 30] | 95 to 100%
* COC(=O)c1nc(-c2ccc3c(c2)OC(C)(C)O3)nc(N)c1OC [Compound 67] | 0 to 29%
* COC(=O)c1nc(-c2ccc3c(c2)OC(F)(F)O3)c(F)c(N)c1Cl [Compound 6] | 95 to 100%
* COC(=O)c1nc(-c2cc(F)c3c(c2)OC(F)(F)O3)c(F)c(N)c1Cl [Compound 17] | 0 to 29%

---

# System: Key Grass and Sedge Weeds as well as Grass Crops
# EXPERIMENT_DESCRIPTION: Post-Emergent Test II: postemergent herbicidal activity, visual rating after 14 d (Table 8)
# Format: in vivo
# CONDITION_CONTEXT: post-emergence, 336 h, giant foxtail (Setaria faberi), 140 g ai/ha, read-out: Visual Growth Reduction (%) 14 Days After Application, SETFA
ASSAY_METRIC: pest or weed control at 140 g/ha

* COC(=O)c1nc(-c2cccc3c2OCO3)cc(N)c1Cl | 0 to 29%
* COC(=O)c1nc(-c2ccc(F)c3c2OCO3)c(F)c(N)c1Cl | 0 to 29%
* COC(=O)c1nc(-c2ccc(Cl)c3c2OC(F)(F)O3)cc(N)c1Cl | 0 to 29%
* COC(=O)c1nc(-c2ccc3c(c2)COC3)c(F)c(N)c1Cl | 0 to 29%
* Nc1c(F)c(-c2ccc3c(c2)COC3)nc(C(=O)O)c1Cl | 0 to 29%

---

# Test system: Direct Seeded Rice and weed species
# EXPERIMENT_DESCRIPTION: Postemergence herbicidal activity in direct seeded rice, visual rating after 20-22 days and probit GR20/GR50/GR80/GR90 (Table 14)
# Format: in vivo
# CONDITION_CONTEXT: CYPDI (Cyperus difformis); probit analysis, dose for 50 percent growth reduction
# Method: Herbicidal evaluations were made visually on a scale of 0 to 100 where 0 represents no activity and 100 represents complete plant death. […] A weighed amount, determined by the highest rate to be tested, of each test compound was placed in 25 mL glass vials and dissolved in a volume of 97:3 v/v acetone-DMSO to obtain 12× stock solutions. […]
Lab note: anything with GR50 CYPDI below 0.4 g ai/ha is marked 1; values at 0.4 g ai/ha or higher are marked -1.

- COC(=O)c1nc(-c2ccc3c(c2F)OC(F)(F)O3)cc(N)c1Cl: 1
- COc1c(C(=O)O)nc(-c2ccc3c(c2)OC(F)(F)O3)c(F)c1N: 1
- Nc1cc(-c2cc3c(cc2F)OC(F)(F)O3)nc(C(=O)O)c1Cl: 1
- Nc1cc(-c2ccc3c(c2F)OC(F)(F)O3)nc(C(=O)O)c1Cl: -1
- Nc1c(F)c(-c2ccc3c(c2F)OC(F)(F)O3)nc(C(=O)O)c1Cl: -1
- Nc1c(F)c(-c2cc3c(cc2F)OC(F)(F)O3)nc(C(=O)O)c1Cl: 1
- COC(=O)c1nc(-c2ccc3c(c2F)OC(F)(F)O3)c(F)c(N)c1Cl: -1
- COc1c(N)nc(-c2ccc3c(c2F)OC(F)(F)O3)nc1C(=O)O: -1

---

Let's look at some molecules and their measured GR90 DIGSA.
# System: Direct Seeded Rice and weed species
# EXPERIMENT_DESCRIPTION: Postemergence herbicidal activity in direct seeded rice, visual rating after 20-22 days and probit GR20/GR50/GR80/GR90 (Table 14)
# Type: in vivo
# CONDITION_CONTEXT: DIGSA (Digitaria sanguinalis); probit analysis, dose for 90 percent growth reduction
# Description: Herbicidal evaluations were made visually on a scale of 0 to 100 where 0 represents no activity and 100 represents complete plant death. […] A weighed amount, determined by the highest rate to be tested, of each test compound was placed in 25 mL glass vials and dissolved in a volume of 97:3 v/v acetone-DMSO to obtain 12× stock solutions. […]
ASSAY_METRIC: GR90 DIGSA (g ai/ha)

- Nc1c(F)c(-c2ccc3c(c2F)OC(F)(F)O3)nc(C(=O)O)c1Cl: 9
- COC(=O)c1nc(-c2ccc3c(c2F)OC(F)(F)O3)cc(N)c1Cl: 8
- Nc1cc(-c2cc3c(cc2F)OC(F)(F)O3)nc(C(=O)O)c1Cl: 1
- COC(=O)c1nc(-c2ccc3c(c2F)OC(F)(F)O3)c(F)c(N)c1Cl: 21
- Nc1cc(-c2ccc3c(c2F)OC(F)(F)O3)nc(C(=O)O)c1Cl: 2
- COc1c(N)nc(-c2ccc3c(c2F)OC(F)(F)O3)nc1C(=O)O: 77
- Nc1c(F)c(-c2cc3c(cc2F)OC(F)(F)O3)nc(C(=O)O)c1Cl: 6
- COc1c(C(=O)O)nc(-c2ccc3c(c2)OC(F)(F)O3)c(F)c1N: 27000
